Reference source: ChEMBL document CHEMBL1156306

Target: Sphingosine kinase 2 (Mus musculus) (UniProt Q9JIA7)
Sequence (whole entry): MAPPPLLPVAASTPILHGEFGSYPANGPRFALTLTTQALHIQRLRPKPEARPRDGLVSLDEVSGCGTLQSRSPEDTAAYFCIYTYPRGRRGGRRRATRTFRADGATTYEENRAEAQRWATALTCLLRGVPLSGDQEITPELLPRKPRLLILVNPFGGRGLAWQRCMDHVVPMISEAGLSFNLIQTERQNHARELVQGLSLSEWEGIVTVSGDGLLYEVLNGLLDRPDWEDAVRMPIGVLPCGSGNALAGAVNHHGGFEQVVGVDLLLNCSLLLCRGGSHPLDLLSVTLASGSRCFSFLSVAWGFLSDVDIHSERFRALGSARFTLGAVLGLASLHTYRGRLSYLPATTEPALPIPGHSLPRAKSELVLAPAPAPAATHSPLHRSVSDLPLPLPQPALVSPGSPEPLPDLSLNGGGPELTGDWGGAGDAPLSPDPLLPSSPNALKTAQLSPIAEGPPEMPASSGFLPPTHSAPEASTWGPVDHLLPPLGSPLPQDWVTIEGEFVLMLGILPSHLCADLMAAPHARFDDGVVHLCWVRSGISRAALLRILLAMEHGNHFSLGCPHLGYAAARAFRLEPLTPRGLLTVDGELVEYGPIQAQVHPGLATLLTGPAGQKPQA
Assay: Ratio of Ki to Km for mouse recombinant SPHK2 expressed in baculovirus-infected Sf9 cells
RESULT TYPE: Ratio
// return just the number, without any unit appended

The following molecules have reported results that may help.
                    structure_smiles_string                        measurement_target  result_type  result_value
0  CCCCCCCCCCCCCCCCc1ccc(C(=O)NC2(C(=N)N)CC2)cc1  Sphingosine kinase 2 (Mus musculus) (UniProt Q9JIA7)        Ratio             2
1     CCCCCCCCc1ccc(C(=O)NC2(C(=N)N)CC2)cc1  Sphingosine kinase 2 (Mus musculus) (UniProt Q9JIA7)        Ratio           4.6
2  CCCCCCCCc1ccc(C(=O)N[C@@H](C)C(=N)N)cc1.Cl  Sphingosine kinase 2 (Mus musculus) (UniProt Q9JIA7)        Ratio             4

input: Can you look up the measured Ratio of CCCCCCCCCCCCCCc1ccc(C(=O)NC2(C(=N)N)CC2)cc1 for me?
output: 6.4

input: Can you look up the measured Ratio of CCCCCCCCCCCCc1ccc(NC(=O)C2(C(=N)N)CC2)cc1 for me?
output: 1.2

input: Can you look up the measured Ratio of CCCCCCCCCCCCc1ccc(C(=O)NC2(C(=N)N)CC2)cc1 for me?
output: 0.1
